Every entry's value here was drawn from patent US11554171B2.

Tested on: c-myc in 22RV-1 cells
Assay: Human c-myc ELISA assay
Assay type: cell-based
Settings: Homo sapiens, 22Rv1, 18 h, read-out: Degradation of BRD4: Maximum inhibition (%) c-Myc ELISA in 22RV1 cells
Assign Emax to each entry below.
Note: unit % is implicit; provide only the numeric part.

// query Endpoint output: Emax of "Cc1ncsc1-c1ccc([C@H](C)NC(=O)[C@@H]2C[C@@H](O)CN2C(=O)[C@H](C(C)C)n2cc(-c3ccnc(O[C@H]4C[C@H](NC(=O)C[C@@H]5N=C(c6ccc(Cl)cc6)c6c(sc(C)c6C)-n6c(C)nnc65)C4)c3)cn2)cc1" . Value?
// result 100

// query Return reported Emax; argument: "Cc1sc2c(c1C)C(c1ccc(Cl)cc1)=N[C@@H](CC(=O)N[C@H]1C[C@H](Oc3ccc(CC(=O)N[C@H](C(=O)N4C[C@H](O)C[C@H]4C(=O)N[C@@H](C)c4ccc(S(C)(=O)=O)cc4)C(C)(C)C)cc3)C1)c1nnc(C)n1-2"
// result 15

---

Tested on: c-myc in 22RV-1 cells
Test: Human c-myc ELISA assay
Type: cell-based
Details: Homo sapiens, 22Rv1, 18 h, read-out: Degradation of BRD4: Maximum inhibition (%) c-Myc ELISA in 22RV1 cells
measured-attribute: Emax (%)
Response body: numeric value in %, unit text excluded.

// query Form entry - test system: c-myc in 22RV-1 cells; read-out: Emax; molecule: "Cc1ncsc1-c1ccc([C@H](C)NC(=O)[C@@H]2C[C@@H](O)CN2C(=O)[C@@H](NC(=O)CCc2cc(F)cc(O[C@H]3C[C@@H](NC(=O)C[C@@H]4N=C(c5ccc(Cl)cc5)c5c(sc(C)c5C)-n5c(C)nnc54)C3)c2)C(C)(C)C)cc1"
// result 99

// query Recorded Emax for "Cc1ncsc1-c1ccc(CNC(=O)[C@@H]2C[C@@H](O)CN2C(=O)[C@@H](C(C)C)n2cc(-c3ccnc(O[C@H]4C[C@@H](NC(=O)C[C@@H]5N=C(c6ccc(Cl)cc6)c6c(sc(C)c6C)-n6c(C)nnc65)C4)c3)cn2)cc1" with c-myc in 22RV-1 cells, please?
// result 39.3

// query Observed Emax on c-myc in 22RV-1 cells for "Cc1ncsc1-c1ccc(CNC(=O)[C@@H]2C[C@@H](O)CN2C(=O)[C@@H](NC(=O)Cc2ccc(OCCNC(=O)C[C@@H]3N=C(c4ccc(Cl)cc4)c4c(sc(C)c4C)-n4c(C)nnc43)cn2)C(C)(C)C)cc1" , please.
// result 91.1

// query Give Emax (c-myc in 22RV-1 cells) of the following molecule: "Cc1ncsc1-c1ccc([C@H](C)NC(=O)[C@@H]2C[C@@H](O)CN2C(=O)[C@@H](NC(=O)CCCCC(=O)N2CCN(C(=O)C[C@@H]3N=C(c4ccc(Cl)cc4)c4c(sc(C)c4C)-n4c(C)nnc43)CC2)C(C)(C)C)cc1"
// result 78.5

// query Please provide the recorded Emax for "Cc1ncsc1-c1ccc(CNC(=O)[C@@H]2C[C@@H](O)CN2C(=O)[C@@H](NC(=O)COCCn2cc(-c3ccc([C@@H](C)NC(=O)C[C@@H]4N=C(c5ccc(Cl)cc5)c5c(sc(C)c5C)-n5c(C)nnc54)cc3)cn2)C(C)(C)C)cc1" , tested on c-myc in 22RV-1 cells.
// result 86.7

// query Requested read-out Emax, target or system c-myc in 22RV-1 cells, entry "Cc1ncsc1-c1ccc([C@H](C)NC(=O)[C@@H]2C[C@@H](O)CN2C(=O)[C@@H](NC(=O)COCCOc2cccc(NC(=O)C[C@@H]3N=C(c4ccc(Cl)cc4)c4c(sc(C)c4C)-n4c(C)nnc43)c2)C(C)(C)C)cc1"
// result 98

// query Query Emax on c-myc in 22RV-1 cells for "Cc1ncsc1-c1ccc([C@H](C)NC(=O)[C@@H]2C[C@@H](O)CN2C(=O)[C@@H](NC(=O)/C=C/c2cccc(O[C@@H](C)CNC(=O)C[C@@H]3N=C(c4ccc(Cl)cc4)c4c(sc(C)c4C)-n4c(C)nnc43)c2)C(C)(C)C)cc1"
// result 96.5

// query Return Emax measured with c-myc in 22RV-1 cells given this molecule: "Cc1ncsc1-c1ccc([C@H](C)NC(=O)[C@@H]2C[C@@H](O)CN2C(=O)[C@@H](NC(=O)CCCCOCCCNC(=O)C[C@@H]2N=C(c3ccc(Cl)cc3)c3c(sc(C)c3C)-n3c(C)nnc32)C(C)(C)C)cc1"
// result 90.3

---

Assignment: determine reported Emax for the given molecules.
System: c-myc in 22RV-1 cells
Experiment: Human c-myc ELISA assay
Format: cell-based
Settings: Homo sapiens, 22Rv1, 18 h, read-out: Degradation of BRD4: Maximum inhibition (%) c-Myc ELISA in 22RV1 cells
Field: numeric (%). Do not append units.

// query Can you look up the measured Emax of "Cc1ncsc1-c1ccc(CNC(=O)[C@@H]2C[C@@H](O)CN2C(=O)[C@@H](NC(=O)COCCCOCCCOc2ccc(NC(=O)C[C@@H]3N=C(c4ccc(Cl)cc4)c4c(sc(C)c4C)-n4cnnc43)cc2)C(C)(C)C)cc1" for me?
// result 56

// query So what does the record say about Emax for "Cc1ncsc1-c1ccc([C@H](C)NC(=O)[C@@H]2C[C@@H](O)CN2C(=O)[C@@H](NC(=O)COc2ccc(O[C@H]3C[C@@H](NC(=O)C[C@@H]4N=C(c5ccc(Cl)cc5)c5c(sc(C)c5C)-n5c(C)nnc54)C3)nc2)C(C)(C)C)cc1" ?
// result 96

---

Tested on: c-myc in 22RV-1 cells
Assay: Human c-myc ELISA assay
Format: cell-based
Conditions: Homo sapiens, 22Rv1, 18 h, read-out: Degradation of BRD4: Maximum inhibition (%) c-Myc ELISA in 22RV1 cells
Experimental: 22RV-1 cells are seeded at 30,000 cells/well at a volume of 75 μL/well in RPMI+10% FBS media in 96-well plates and grown overnight at 37 C. Cells are dosed with compounds at 4× concentration diluted in 0.4% DMSO; compounds are serially diluted 1:3 for 8-point dose curve. 25 ul of compounds is added to cells for a final concentration starting at 300 nM-0.3 nM or 1 uM-1 nM in 0.1% DMSO and incubated for 18 hrs. […] Data is analyzed and plotted using GraphPad Prism software. […]
Provide the recorded Emax for the entries that follow.

// query Look at this compound and give its reported Emax. Cc1ncsc1-c1ccc([C@H](C)NC(=O)[C@@H]2C[C@@H](O)CN2C(=O)[C@@H](NC(=O)CN2CCC(N3CCC(NC(=O)C[C@@H]4N=C(c5ccc(Cl)cc5)c5c(sc(C)c5C)-n5c(C)nnc54)CC3)CC2)C(C)(C)C)cc1 [Example 353]
// result > 90%

// query For the compound Cc1ncsc1-c1ccc(CNC(=O)[C@@H]2C[C@@H](O)CN2C(=O)[C@@H](NC(=O)COc2ccc(O[C@H]3C[C@@H](NC(=O)C[C@@H]4N=C(c5ccc(Cl)cc5)c5c(sc(C)c5C)-n5c(C)nnc54)C3)nc2)C(C)(C)C)cc1 [Example 118] , what Emax is on record?
// result 94.4%

// query Name the recorded Emax for Cc1ncsc1-c1ccc([C@H](C)NC(=O)[C@@H]2C[C@@H](O)CN2C(=O)[C@@H](C(C)C)n2cc(-c3cc(O[C@H]4C[C@@H](NC(=O)C[C@@H]5N=C(c6ccc(Cl)cc6)c6c(sc(C)c6C)-n6c(C)nnc65)C4)ccn3)cn2)cc1 [Example 303] .
// result 9.8%

// query So what's the measured Emax for this one? Cc1ncsc1-c1ccc([C@H](C)NC(=O)[C@@H]2C[C@@H](O)CN2C(=O)[C@@H](NC(=O)c2cc3cc(O[C@H](C)CNC(=O)C[C@@H]4N=C(c5ccc(Cl)cc5)c5c(sc(C)c5C)-n5c(C)nnc54)ccc3o2)C(C)(C)C)cc1 [Example 206]
// result 90%

// query Which measured Emax value corresponds to Cc1ncsc1-c1ccc([C@H](C)NC(=O)[C@@H]2C[C@@H](O)CN2C(=O)[C@@H](NC(=O)COc2cc(F)cc(O[C@H]3C[C@@H](NC(=O)C[C@@H]4N=C(c5ccc(Cl)cc5)c5c(sc(C)c5C)-n5c(C)nnc54)C3)c2)C(C)(C)C)cc1 [Example 209] ?
// result 90%

// query Requested read-out: Emax. Entry: Cc1ncsc1-c1ccc([C@H](C)NC(=O)[C@@H]2C[C@@H](O)CN2C(=O)[C@@H](C(C)C)n2cc(-c3ccc(N4CC(NC(=O)C[C@@H]5N=C(c6ccc(Cl)cc6)c6c(sc(C)c6C)-n6c(C)nnc65)C4)nc3)cn2)cc1 [Example 255]
// result 35.5%

// query Suppose we examine the compound Cc1ncsc1-c1ccc(CNC(=O)[C@@H]2C[C@@H](O)CN2C(=O)[C@@H](NC(=O)COCCCOCCCOc2ccc(NC(=O)C[C@@H]3N=C(c4ccc(Cl)cc4)c4c(sc(C)c4C)-n4c(C(C)C)nnc43)cc2)C(C)(C)C)cc1 [Example 54] ; what Emax value has been reported?
// result 63%

// query # get_value(readout='Emax', item= Cc1sc2c(c1C)C(c1ccc(Cl)cc1)=N[C@@H](CC(=O)N[C@H]1C[C@@H](Oc3ccc4oc(C(=O)N[C@H](C(=O)N5C[C@H](O)C[C@H]5C(=O)N[C@@H](C)c5ccc(-c6scnc6CO)cc5)C(C)(C)C)cc4c3)C1)c1nnc(C)n1-2 [Example 342] )
// result 100%

// query Record request: Emax value, item Cc1ncsc1-c1ccc([C@H](C)NC(=O)[C@@H]2C[C@@H](O)CN2C(=O)[C@@H](NC(=O)COc2ccnc(N3CCN(C(=O)C[C@@H]4N=C(c5ccc(Cl)cc5)c5c(sc(C)c5C)-n5c(C)nnc54)CC3)n2)C(C)(C)C)cc1 [Example 330]
// result 89%

// query Which Emax value is on record for Cc1ncsc1-c1ccc([C@H](C)NC(=O)[C@@H]2C[C@@H](O)CN2C(=O)[C@@H](NC(=O)COCCCOCCCCOc2ccc3c(c2)c2c(C(N)=O)cc(-c4c(C)noc4C)cc2n3Cc2ccccc2)C(C)(C)C)cc1 [Example 166] ?
// result 97%

// query Data request, read-out Emax, for Cc1ncsc1-c1ccc([C@H](C)NC(=O)[C@@H]2C[C@@H](O)CN2C(=O)[C@@H](NC(=O)COc2ccc(N3CC(NC(=O)C[C@@H]4N=C(c5ccc(Cl)cc5)c5c(sc(C)c5C)-n5c(C)nnc54)C3)nc2)C(C)(C)C)cc1 [Example 251]
// result 92.3%

// query What value of Emax has been reported for the following compound? Cc1ncsc1-c1ccc([C@H](C)NC(=O)[C@@H]2C[C@@H](O)CN2C(=O)[C@@H](C(C)C)n2cc(-c3ccc(N4CCN(C(=O)C[C@@H]5N=C(c6ccc(Cl)cc6)c6c(sc(C)c6C)-n6c(C)nnc65)CC4)nc3)cn2)cc1 [Example 321]
// result 56%

// query Could you share which Emax value was measured for Cc1sc2c(c1C)C(c1ccc(Cl)cc1)=N[C@@H](CC(=O)N[C@H]1C[C@@H](Oc3cccc(-c4cnn([C@@H](C(=O)N5C[C@H](O)C[C@H]5C(=O)N[C@@H](C)c5ccc(-n6ccnc6C)cc5)C(C)C)c4)c3)C1)c1nnc(C)n1-2 [Example 298] ?
// result 25.5%

// query Name the reported Emax value associated with the compound Cc1ncsc1-c1ccc([C@H](C)NC(=O)[C@@H]2C[C@@H](O)CN2C(=O)[C@@H](NC(=O)CN2C[C@@H](C)N(C3CC4(C3)CN(C(=O)C[C@@H]3N=C(c5ccc(Cl)cc5)c5c(sc(C)c5C)-n5c(C)nnc53)C4)C[C@@H]2C)C(C)(C)C)cc1 [Example 357]
// result 100%

// query For the compound Cc1ncsc1-c1ccc(CNC(=O)[C@@H]2C[C@@H](O)CN2C(=O)[C@@H](NC(=O)COCCOCCOc2ccc3c(c2)c2c(C(N)=O)cc(-c4c(C)noc4C)cc2n3Cc2ccccc2)C(C)(C)C)cc1 [Example 174] , what Emax is on record?
// result 96.4%

// query What measured Emax goes with Cc1ncsc1-c1ccc([C@H](C)NC(=O)[C@@H]2C[C@@H](O)CN2C(=O)[C@@H](C(C)C)n2cc(-c3ccnc(O[C@H]4C[C@@H](NC(=O)C[C@@H]5N=C(c6ccc(Cl)cc6)c6c(sc(C)c6C)-n6c(C)nnc65)C4)n3)cn2)cc1 [Example 300] ?
// result 24%
